target: T1, human DR5 ECD-Avi-his (human, UniProt O14763 56-207); assay: SPR (BIAcore 3000), antibody captured by anti-human Fc, monomeric DR5 injected
T1 construct: also called recombinant human DR5 (monomeric His-Avi fusion protein); monomeric human DR5
koff reference
reported.endpoint: koff (s⁻¹)

binder | reported.endpoint | test.result
DR5TAA-0052 (antibody, human IgG1, kappa, L234A L235A, V domains shown, rabbit variable, human constant regions; also called chimeric form of DR5TAA-0011; chimeric variant) VH: QSVEESGGRLVTPGTPLTLTCTVSGFSISRYAMIWVRQAPGEGLEYIGFITSDSSAYYASWAKGRFTISKTSTTVDLKMTSPTTEDTATYFCARYTYSDGTDLWGPGTLVTVSS VL: DIVMTQTPASVSEPVGGTVTIKCQASQSISTYLSWYQQKPGQPPKRLIYKASTLASGVPSRFKGSGSGTDFTLTIRDLESADAATYYCQPNSGIATYGAAFGGGTEVVVKR | koff | 0.0024
DR5TAA-0075 (antibody, human IgG1, kappa, L234A L235A, V domains shown, humanized variant of DR5TAA-0011; also called VH7/VL11) VH: EVQLVETGGGLIQPGGSLRLSCAASGFTVSRYAMIWVRQAPGKGLEYIGFITSDGSTYYADSAKGRFTISRDNSKNTLYLQMNSLRAEDTAVYYCARYTYSDGTDLWGRGTLVTVSS VL: DIQMTQSPSSLSASVGDRVTITCQASQSISTYLSWYQQKPGQPPKRLIYKASTLASGVPSRFSGSGSGTDFTLTISSLQPEDFATYYCQPNSGIATYGAAFGGGTKVEIKR | koff | 0.0056
DR5TAA-0074 (antibody, human IgG1, kappa, L234A L235A, V domains shown, humanized variant of DR5TAA-0011; also called VH7/VL10) VH: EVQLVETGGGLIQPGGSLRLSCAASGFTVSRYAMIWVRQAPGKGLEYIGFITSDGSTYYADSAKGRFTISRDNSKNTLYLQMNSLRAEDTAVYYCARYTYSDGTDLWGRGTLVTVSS VL: DIQMTQSPSSLSASVGDRVTITCRASQSISTYLSWYQQKPGQPPKRLIYKASTLASGVPSRFSGSGSGTDFTLTISSLQPEDFATYYCQPNSGIATYGAAFGGGTKVEIKR | koff | 0.0056
